biological target: MAPK15 (human); assay: KINOMEscan competition binding; settings: compound 10.0 µM
PARAMETER: kinase still bound, per cent of control (%)
Numbers only, in %.

Field: example entries. Status: answers known.
N=C1NC(=O)/C(=C/c2ccc(-c3ccccc3O)o2)S1; 0.3
N=C1NC(=O)/C(=C/c2c[nH]c(=O)c(-c3ccc(N4CCNCC4)nc3)c2)S1; 4
N=C1NC(=O)/C(=C/c2ccc(-c3ccc(C(N)=O)cc3O)o2)S1; 0.1
CN1C(=O)[C@H]2CCC[C@H]2N(C2CCCC2)c2nc(Nc3ccc(C(N)=O)cc3)ncc21; 18

stdin: Would you mind telling me what kinase still bound, per cent of control value was observed for "CSC1=NC(=O)/C(=C/c2c[nH]c(=O)c(-c3ccc(NS(C)(=O)=O)cc3)c2)S1" ?
stdout: 5

====

target: MAP4K4 (human) (UniProt O95819); assay: KINOMEscan competition binding; settings: compound 10.0 µM
Sequence (O95819 whole entry, looked up): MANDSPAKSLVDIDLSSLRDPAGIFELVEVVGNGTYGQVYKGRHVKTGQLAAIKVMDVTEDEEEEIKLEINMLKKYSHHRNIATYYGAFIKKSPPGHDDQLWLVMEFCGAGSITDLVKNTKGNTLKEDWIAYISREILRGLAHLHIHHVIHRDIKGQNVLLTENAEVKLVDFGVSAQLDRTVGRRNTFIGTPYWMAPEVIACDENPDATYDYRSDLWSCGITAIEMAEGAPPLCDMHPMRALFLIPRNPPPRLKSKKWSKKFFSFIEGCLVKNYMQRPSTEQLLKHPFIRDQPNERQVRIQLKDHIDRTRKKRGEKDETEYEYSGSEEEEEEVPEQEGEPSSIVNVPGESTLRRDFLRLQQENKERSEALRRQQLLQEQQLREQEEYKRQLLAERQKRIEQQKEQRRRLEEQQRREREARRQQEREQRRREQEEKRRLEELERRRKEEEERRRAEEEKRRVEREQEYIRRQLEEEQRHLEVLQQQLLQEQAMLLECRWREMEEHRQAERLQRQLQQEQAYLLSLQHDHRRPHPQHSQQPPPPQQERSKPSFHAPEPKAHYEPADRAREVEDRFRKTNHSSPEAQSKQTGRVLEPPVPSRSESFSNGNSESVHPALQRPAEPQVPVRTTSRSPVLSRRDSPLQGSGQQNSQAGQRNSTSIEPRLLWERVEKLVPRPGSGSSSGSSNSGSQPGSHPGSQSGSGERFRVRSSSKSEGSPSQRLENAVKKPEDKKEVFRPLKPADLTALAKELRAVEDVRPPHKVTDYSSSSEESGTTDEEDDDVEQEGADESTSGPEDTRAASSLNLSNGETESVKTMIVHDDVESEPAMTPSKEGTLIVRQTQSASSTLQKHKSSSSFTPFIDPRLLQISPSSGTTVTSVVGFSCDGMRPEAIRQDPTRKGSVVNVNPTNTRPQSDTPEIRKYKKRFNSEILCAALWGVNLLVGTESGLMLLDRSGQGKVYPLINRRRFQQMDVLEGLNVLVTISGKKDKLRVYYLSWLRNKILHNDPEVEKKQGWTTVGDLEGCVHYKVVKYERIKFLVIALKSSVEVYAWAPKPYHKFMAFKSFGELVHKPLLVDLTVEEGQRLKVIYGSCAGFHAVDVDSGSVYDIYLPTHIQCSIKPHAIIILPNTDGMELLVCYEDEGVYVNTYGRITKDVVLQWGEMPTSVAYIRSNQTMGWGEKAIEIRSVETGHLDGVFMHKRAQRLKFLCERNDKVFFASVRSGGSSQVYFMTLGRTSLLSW
PARAMETER: kinase still bound, per cent of control
Your answer should be a number followed by the unit of measure.

Field: example entries. Status: answers known.
CS(=O)(=O)Nc1ccc(-c2cc(/C=C3\SC(=N)NC3=O)c[nH]c2=O)cc1; 25%
O=C1NC(=S)S/C1=C\c1ccc(-c2cncc3ccccc23)o1; 25%
CS(=O)(=O)Nc1ccc(-c2cncc(/C=C3\SC(=N)NC3=O)c2)cc1; 5.5%
CN1C(=O)c2ccccc2N(C)c2nc(Nc3ccc(N4CCC(O)CC4)cc3)ncc21; 85%

stdin: Would you mind telling me what kinase still bound, per cent of control value was observed for "COc1cc(N2CCN(C)CC2)ccc1Nc1ncc2c(n1)Nc1ccccc1NC2=O" ?
stdout: 86%

====

target: MAPK7 (human); assay: KINOMEscan competition binding; settings: compound 10.0 µM
What kinase still bound, per cent of control was measured for each of the following?
Answers are plain numbers, in %.

Field: example entries. Status: answers known.
COc1cc(N2CCN(C)CC2)ccc1Nc1ncc2c(n1)N(C)c1ccccc1N(C)C2=O; 30
COc1cc(C(=O)NC2CCN(C)CC2)ccc1Nc1ncc2c(n1)N(C1CCCC1)CC(C)C(=O)N2C (stereo unspecified); 9.6
COc1cc(N2CCC(O)CC2)ccc1Nc1ncc2c(n1)N1CCc3cccc(c31)C(=O)N2C; 0.3
CC(C)Oc1cc(C(=O)N2CCC(N3CCN(C)CC3)CC2)ccc1Nc1ncc2c(n1)N(C1CCCC1)[C@@H]1CCC[C@@H]1C(=O)N2C; 4.8
COc1cc(N2CCC(O)CC2)ccc1Nc1ncc2c(n1)N(C)c1ccccc1C(=O)N2C; 0

Now, please, on to the next compound.
stdin: For the record "CN1C(=O)c2ccccc2N(C)c2nc(NS(=O)(=O)c3ccc(N)cc3)ncc21" , what value of kinase still bound, per cent of control is listed for MAPK7 (human)?
stdout: 100

====

biological target: BLK (human); assay: KINOMEscan competition binding; conditions: compound 10.0 µM
Kindly apply the following: satisfied if kinase still bound, per cent of control is less than 50%, not satisfied in every other case.

COc1cc(N2CCN(C)CC2)ccc1Nc1ncc2c(n1)N(C)c1ccccc1N(C)C2=O; not satisfied

stdin: Is it true that kinase still bound, per cent of control reported for "COc1cc(N2CCC(O)CC2)ccc1Nc1ncc2c(n1)N1CCc3cccc(c31)C(=O)N2C" is less than 50%?
stdout: not satisfied

====

biological target: FGFR2 (human) (UniProt P21802); assay: KINOMEscan competition binding; settings: compound 10.0 µM
Sequence (P21802 whole entry, looked up): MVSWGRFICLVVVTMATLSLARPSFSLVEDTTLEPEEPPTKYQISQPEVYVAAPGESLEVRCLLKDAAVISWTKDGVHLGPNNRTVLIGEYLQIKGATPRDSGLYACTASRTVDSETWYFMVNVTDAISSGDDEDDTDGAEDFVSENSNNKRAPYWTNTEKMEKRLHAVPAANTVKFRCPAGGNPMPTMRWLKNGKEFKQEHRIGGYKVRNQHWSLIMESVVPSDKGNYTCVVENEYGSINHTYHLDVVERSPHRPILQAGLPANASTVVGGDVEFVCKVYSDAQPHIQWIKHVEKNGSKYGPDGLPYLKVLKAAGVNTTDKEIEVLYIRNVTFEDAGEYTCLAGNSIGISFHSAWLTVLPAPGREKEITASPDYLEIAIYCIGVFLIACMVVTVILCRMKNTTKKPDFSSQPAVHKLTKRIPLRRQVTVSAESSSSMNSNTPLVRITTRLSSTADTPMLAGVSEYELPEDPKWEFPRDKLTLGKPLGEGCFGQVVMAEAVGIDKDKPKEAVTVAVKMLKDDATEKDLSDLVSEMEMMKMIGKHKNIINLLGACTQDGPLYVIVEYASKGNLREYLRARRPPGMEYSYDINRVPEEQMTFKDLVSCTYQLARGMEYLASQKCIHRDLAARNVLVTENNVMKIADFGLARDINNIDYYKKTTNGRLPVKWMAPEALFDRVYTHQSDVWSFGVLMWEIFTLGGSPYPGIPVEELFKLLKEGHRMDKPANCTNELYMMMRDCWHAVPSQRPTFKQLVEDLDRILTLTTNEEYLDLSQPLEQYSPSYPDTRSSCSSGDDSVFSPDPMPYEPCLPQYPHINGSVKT
PARAMETER: kinase still bound, per cent of control (%)
Answers are plain numbers, in %.

Field: example entries. Status: answers known.
COc1cc(N2CCC(O)CC2)ccc1Nc1ncc2c(n1)N1CCc3cccc(c31)C(=O)N2C; 95
O=C1NC(=O)/C(=C/c2c[nH]c(=O)c(-c3ccc(N4CCNCC4)nc3)c2)S1; 100
CN1C(=O)c2ccccc2N(C)c2nc(NS(=O)(=O)c3ccc(N)cc3)ncc21; 100
CN1C(=O)c2ccccc2N(C)c2nc(Nc3ccc(N4CCC(O)CC4)cc3)ncc21; 63
COc1cc(N2CCN(C)CC2)ccc1Nc1ncc2c(n1)Nc1ccccc1NC2=O; 87
CN1CCN(c2ccc(C(=O)Nc3ncc4c(n3)N(C)c3ccccc3C(=O)N4C)cc2)CC1; 100
COc1cc(N2CCN(C)CC2)ccc1Nc1ncc2c(n1)N(C)c1ccccc1N(C)C2=O; 100

Now, please, on to the next compound.
stdin: For the record "COc1cc(N2CCN(C)CC2)ccc1Nc1ncc2c(n1)N(C)c1sccc1C(=O)N2C" , what value of kinase still bound, per cent of control is listed for FGFR2 (human) (UniProt P21802)?
stdout: 81

====

biological target: MYLK (human) (UniProt Q15746); experiment: KINOMEscan competition binding; conditions: compound 10.0 µM
Sequence (Q15746 whole entry, looked up): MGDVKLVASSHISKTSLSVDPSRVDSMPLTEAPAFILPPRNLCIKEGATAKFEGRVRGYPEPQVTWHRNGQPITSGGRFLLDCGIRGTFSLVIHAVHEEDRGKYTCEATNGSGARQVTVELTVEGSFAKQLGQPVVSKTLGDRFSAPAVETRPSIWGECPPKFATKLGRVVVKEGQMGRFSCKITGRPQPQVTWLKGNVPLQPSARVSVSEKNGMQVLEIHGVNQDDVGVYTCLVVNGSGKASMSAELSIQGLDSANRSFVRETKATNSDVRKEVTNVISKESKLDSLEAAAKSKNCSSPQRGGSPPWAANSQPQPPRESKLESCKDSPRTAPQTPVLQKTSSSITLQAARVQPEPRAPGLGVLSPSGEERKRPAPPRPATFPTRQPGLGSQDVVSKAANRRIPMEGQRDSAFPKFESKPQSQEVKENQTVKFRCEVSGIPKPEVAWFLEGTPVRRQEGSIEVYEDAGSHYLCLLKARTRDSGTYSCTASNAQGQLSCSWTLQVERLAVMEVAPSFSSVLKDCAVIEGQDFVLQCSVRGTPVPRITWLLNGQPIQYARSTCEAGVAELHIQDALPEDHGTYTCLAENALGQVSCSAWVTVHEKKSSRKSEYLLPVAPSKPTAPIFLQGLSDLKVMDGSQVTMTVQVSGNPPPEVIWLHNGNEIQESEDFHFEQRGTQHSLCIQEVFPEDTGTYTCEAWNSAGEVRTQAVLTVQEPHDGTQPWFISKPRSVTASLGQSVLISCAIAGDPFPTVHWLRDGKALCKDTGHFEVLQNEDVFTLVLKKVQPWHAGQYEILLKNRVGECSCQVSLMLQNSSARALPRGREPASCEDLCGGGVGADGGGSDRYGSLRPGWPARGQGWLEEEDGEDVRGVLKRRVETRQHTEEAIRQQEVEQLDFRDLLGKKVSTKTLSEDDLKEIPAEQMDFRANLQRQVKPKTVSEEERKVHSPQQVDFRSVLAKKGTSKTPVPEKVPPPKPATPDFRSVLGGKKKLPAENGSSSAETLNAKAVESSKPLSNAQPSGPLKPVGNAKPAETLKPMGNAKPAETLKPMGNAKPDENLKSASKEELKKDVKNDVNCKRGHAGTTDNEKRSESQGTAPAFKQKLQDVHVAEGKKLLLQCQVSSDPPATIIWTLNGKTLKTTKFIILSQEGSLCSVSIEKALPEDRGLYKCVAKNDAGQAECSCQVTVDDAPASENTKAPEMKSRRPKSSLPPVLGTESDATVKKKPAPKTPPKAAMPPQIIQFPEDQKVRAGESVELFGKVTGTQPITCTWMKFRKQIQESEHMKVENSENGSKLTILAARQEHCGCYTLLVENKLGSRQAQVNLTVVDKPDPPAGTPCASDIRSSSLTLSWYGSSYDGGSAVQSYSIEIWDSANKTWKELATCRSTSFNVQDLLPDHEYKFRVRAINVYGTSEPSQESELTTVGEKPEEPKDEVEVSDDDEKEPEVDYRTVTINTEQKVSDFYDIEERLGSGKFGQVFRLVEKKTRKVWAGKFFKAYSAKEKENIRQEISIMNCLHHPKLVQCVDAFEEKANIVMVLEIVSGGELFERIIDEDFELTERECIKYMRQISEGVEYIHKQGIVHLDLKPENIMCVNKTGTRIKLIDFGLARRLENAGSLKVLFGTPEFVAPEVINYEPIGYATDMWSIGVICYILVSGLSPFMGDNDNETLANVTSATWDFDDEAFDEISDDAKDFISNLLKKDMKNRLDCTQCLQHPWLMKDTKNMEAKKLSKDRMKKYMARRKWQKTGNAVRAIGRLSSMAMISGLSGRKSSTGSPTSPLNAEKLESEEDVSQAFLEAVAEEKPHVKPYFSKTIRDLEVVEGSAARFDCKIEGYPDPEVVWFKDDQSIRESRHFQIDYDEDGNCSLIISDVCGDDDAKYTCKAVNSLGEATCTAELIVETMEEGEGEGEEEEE
PARAMETER: kinase still bound, per cent of control (%)
Numbers only, in %.

Field: example entries. Status: answers known.
CN1CCN(c2ccc(C(=O)Nc3ncc4c(n3)N(C)c3ccccc3C(=O)N4C)cc2)CC1; 92
COc1cc(N2CCN(C)CC2)ccc1Nc1ncc2c(n1)N(C1CCCC1)C(C)CC(=O)N2C (centres undefined); 7.6
COc1cc(C(=O)NC2CCN(C)CC2)ccc1Nc1ncc2c(n1)N(C1CCCC1)CCC(=O)N2C; 2.2
N=C1NC(=O)/C(=C/c2ccc(-c3cncc4ccccc34)o2)S1; 19
COc1cc(N2CCN(C)CC2)ccc1Nc1ncc2c(n1)Nc1ccccc1NC2=O; 100

Could you report kinase still bound, per cent of control for every entry in the following list?
1. COc1cc(C(=O)NC2CCN(C)CC2)ccc1Nc1ncc2c(n1)N(C1CCCC1)C(C)CC(=O)N2C (centres undefined)
2. COc1cc(C(N)=O)ccc1Nc1ncc2c(n1)N(C1CCCC1)[C@@H]1CCC[C@@H]1C(=O)N2C
3. COc1cc(N2CCC(N3CCN(C)CC3)CC2)ccc1Nc1ncc2c(n1)N(C1CCCC1)C(C)CC(=O)N2C (centres undefined)
4. COc1cc(N2CCC(O)CC2)ccc1Nc1ncc2c(n1)N(C)c1ccccc1C(=O)N2C
5. COc1cc(N2CCC(O)CC2)ccc1Nc1ncc2c(n1)N(C1CCCC1)CCC(=O)N2C
6. COc1cc(N2CCN(CCO)CC2)ccc1Nc1ncc2c(n1)N(C1CCCC1)CCC(=O)N2C

stdout:
1. 2.8
2. 25
3. 11
4. 22
5. 25
6. 14

====

What kinase still bound, per cent of control was measured for each of the following?
target: INSRR (human); test: KINOMEscan competition binding; conditions: compound 10.0 µM
Give bare numbers, in %.

O=C1NC(=O)/C(=C/c2c[nH]c(=O)c(-c3ccc(N4CCNCC4)nc3)c2)S1; 86
CN1C(=O)c2ccccc2N(C)c2nc(Nc3ccc(N4CCC(O)CC4)cc3)ncc21; 96

Could you report kinase still bound, per cent of control for every entry in the following list?
1. COc1cc(N2CCN(C)CC2)ccc1Nc1ncc2c(n1)N(C)c1sccc1C(=O)N2C
2. COc1cc(N2CCC(C)(O)CC2)ccc1Nc1ncc2c(n1)N(C1CCCC1)CCC(=O)N2C

stdout:
1: 96; 2: 30

Could you report kinase still bound, per cent of control for every entry in the following list?
1. COc1cc(C(=O)NC2CCN(C)CC2)ccc1Nc1ncc2c(n1)N(C1CCCC1)C(C)CC(=O)N2C (stereo unspecified)
2. CN1C(=O)c2ccccc2N(C)c2nc(NS(=O)(=O)c3ccc(N)cc3)ncc21

stdout:
[26, 100]

====

target: CLK3 (human); assay: KINOMEscan competition binding; conditions: compound 10.0 µM
PARAMETER: kinase still bound, per cent of control (%)
Give bare numbers, in %.

Field: example entries. Status: answers known.
Nc1cccc(-c2cc(/C=C3\SC(=O)NC3=O)c[nH]c2=O)c1; 1.2
N=C1NC(=O)/C(=C/c2ccc(-c3cncc4ccccc34)o2)S1; 18
CN1CCN(c2ccc(C(=O)Nc3ncc4c(n3)N(C)c3ccccc3C(=O)N4C)cc2)CC1; 100
COc1cc(N2CCN(C)CC2)ccc1Nc1ncc2c(n1)N(C)c1ccccc1N(C)C2=O; 100
N=C1NC(=O)/C(=C/c2c[nH]c(=O)c(-c3ccc(N4CCNCC4)nc3)c2)S1; 29

Could you report kinase still bound, per cent of control for every entry in the following list?
1. N=C1NC(=O)/C(=C/c2ccc(-c3ccc(C(N)=O)cc3O)o2)S1
2. N=C1NC(=O)/C(=C/c2c[nH]c(=O)c(-c3ccc(S(N)(=O)=O)cc3)c2)S1
3. CSC1=NC(=O)/C(=C/c2c[nH]c(=O)c(-c3ccc(NS(C)(=O)=O)cc3)c2)S1

stdout:
1: 4.2; 2: 3.5; 3: 14

Could you report kinase still bound, per cent of control for every entry in the following list?
1. CN1C(=O)c2ccccc2N(C)c2nc(Nc3ccc(N4CCC(O)CC4)cc3)ncc21
2. COc1cc(N2CCC(O)CC2)ccc1Nc1ncc2c(n1)N1CCc3cccc(c31)C(=O)N2C

stdout:
1. 97
2. 100
